Where a name gives a salt, the structure may show the parent alone.
Reported melting point values follow for various compounds
readout kind: melting point

| compound | endpoint value |
| --- | --- |
| COc1c(N2C[C@@H](N)[C@@H](C3CC3)C2)c(F)cc2c(=O)c(C(=O)O)cn([C@@H]3C[C@@H]3F)c12 [Compound No. 8] | 211 to 214 °C |
| C=C[C@H]1CN(c2c(F)cc3c(=O)c(C(=O)O)cn4c3c2OC[C@@H]4C)C[C@H]1N [Compound No. 7] | 238 to 240 °C |
| CC[C@H]1CN(c2ccc3c(=O)c(C(=O)O)cn([C@@H]4C[C@@H]4F)c3c2C)C[C@H]1N [Compound No. 14] | 232 to 234 °C |
| CCC[C@H]1CN(c2c(F)cc3c(=O)c(C(=O)O)cn([C@@H]4C[C@@H]4F)c3c2C)C[C@H]1N (as salt: hydrochloride) [Compound No. 5] | 197 to 207 °C |

----------
System: E. coli NIHJ
Test: Antibacterial activity (MIC), standard method of the Japan Society of Chemotherapy
Format: cell-based
Details: Escherichia coli; E. coli NIHJ; read-out: MIC
Reported MIC values follow for various molecules
readout kind: MIC

| molecule | endpoint value |
| --- | --- |
| CC[C@H]1CN(c2c(F)cc3c(=O)c(C(=O)O)cn([C@@H]4C[C@@H]4F)c3c2OC)C[C@H]1N [Compound No. 1] | 6 ng/mL |
| CC[C@H]1CN(c2c(F)cc3c(=O)c(C(=O)O)cn([C@@H]4C[C@@H]4F)c3c2C)C[C@H]1N [Compound No. 2] | ≤ 3 ng/mL |
| CC[C@H]1CN(c2c(F)cc3c(=O)c(C(=O)O)cn4c3c2OC[C@@H]4C)C[C@H]1N [Compound No. 3] | 6 ng/mL |
| COc1c(N2C[C@@H](N)[C@@H](C3CC3)C2)c(F)cc2c(=O)c(C(=O)O)cn([C@@H]3C[C@@H]3F)c12 [Compound No. 8] | 6 ng/mL |
| Cc1c(N2C[C@@H](N)[C@@H](C(C)C)C2)c(F)cc2c(=O)c(C(=O)O)cn([C@@H]3C[C@@H]3F)c12 [Compound No. 16] | 6 ng/mL |

----------
Tested on: Chinese hamster lung (CHL/IU) cells
Assay: Effect of inducing chromosomal aberration
Type: cell-based
Conditions: 3 μg/mL, 24 hours, CHL/IU cells
Reported Percentile induction of structural aberration (TA %) values follow for various compounds
readout kind: Percentile induction of structural aberration (TA %)

| compound | test system | u | endpoint value |
| --- | --- | --- | --- |
| CC[C@H]1CN(c2c(F)cc3c(=O)c(C(=O)O)cn(C4CC4)c3c2C)C[C@H]1N [Comparative Compound D, reference compound] | Chinese hamster lung (CHL/IU) cells | % | 0 |
| CC[C@H]1CN(c2c(F)cc3c(=O)c(C(=O)O)cn([C@@H]4C[C@@H]4F)c3c2OC)C[C@H]1N | Chinese hamster lung (CHL/IU) cells | % | 1 |
| CC[C@H]1CN(c2c(F)c(N)c3c(=O)c(C(=O)O)cn(C4CC4)c3c2C)C[C@H]1N [Comparative Compound E, reference compound] | Chinese hamster lung (CHL/IU) cells | % | 3 |
| CC[C@H]1CN(c2c(F)cc3c(=O)c(C(=O)O)cn4c3c2OC[C@@H]4C)C[C@H]1N | Chinese hamster lung (CHL/IU) cells | % | 0 |
| CC[C@H]1CN(c2c(F)cc3c(=O)c(C(=O)O)cn([C@@H]4C[C@@H]4F)c3c2C)C[C@H]1N | Chinese hamster lung (CHL/IU) cells | % | 1 |
